The values you see were collected from patent US20180171001A1.

Reported neutralization IC50 values follow for various binders
- Experimental system: Env of HIV-1 strain YU2.DG (HIV-1)
- Protocol: cell-based or functional assay
State just the number; it will be interpreted in µg/mL.

The cases that follow already have their neutralization IC50 on record.
γ52κ5 (antibody, V domains shown) VH: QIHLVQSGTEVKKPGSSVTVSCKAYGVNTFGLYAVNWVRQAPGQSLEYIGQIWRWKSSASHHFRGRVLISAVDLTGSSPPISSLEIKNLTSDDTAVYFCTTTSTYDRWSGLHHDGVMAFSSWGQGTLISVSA VL: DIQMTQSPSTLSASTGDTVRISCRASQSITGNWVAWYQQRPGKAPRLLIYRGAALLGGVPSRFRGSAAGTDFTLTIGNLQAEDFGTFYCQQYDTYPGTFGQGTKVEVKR :: 0.065
γ8κ11 (antibody, V domains shown) VH: QIHLVQSGTGVKKPGSSVTVSCKAYGVNTFGLYAVNWVRQAPGQGLEYIGQIWRWKSSASHHFRGRVLISAVDLTGSSPPITSLEIKNVTSDDTAVYFCTTTSTYDKWSGLYHDGVMAFSSWGQGTLISVSA VL: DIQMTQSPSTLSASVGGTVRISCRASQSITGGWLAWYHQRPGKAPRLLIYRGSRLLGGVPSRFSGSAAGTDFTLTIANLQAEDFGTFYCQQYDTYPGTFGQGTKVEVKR :: 9.35
γ3κ3 (antibody, V domains shown) VH: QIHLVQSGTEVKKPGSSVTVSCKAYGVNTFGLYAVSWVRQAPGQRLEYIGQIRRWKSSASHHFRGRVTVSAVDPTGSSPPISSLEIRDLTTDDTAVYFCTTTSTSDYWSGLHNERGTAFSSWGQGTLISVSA VL: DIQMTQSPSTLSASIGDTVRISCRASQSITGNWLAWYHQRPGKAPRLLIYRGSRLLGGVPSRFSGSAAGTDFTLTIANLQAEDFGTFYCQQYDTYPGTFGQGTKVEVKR :: 0.42
γ15κ11 (antibody, V domains shown) VH: QIHLVQSGTEVKKPGSSVTVSCKAYGVNTFGLYAVNWVRQAPGQSLEYIGQIWRWKSSASHHFRGRVIISAVDLTGSSPPISSLEIKNLTSDDTAVYFCTTASTYDKWSGLHHDGVMAFSSWGQGTLISVSA VL: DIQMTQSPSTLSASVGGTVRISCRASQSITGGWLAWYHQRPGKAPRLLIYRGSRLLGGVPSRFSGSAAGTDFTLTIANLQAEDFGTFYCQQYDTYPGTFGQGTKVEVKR :: 4.12

Now consider a different binder.
Form: binder = γ59κ18 (antibody, V domains shown) VH: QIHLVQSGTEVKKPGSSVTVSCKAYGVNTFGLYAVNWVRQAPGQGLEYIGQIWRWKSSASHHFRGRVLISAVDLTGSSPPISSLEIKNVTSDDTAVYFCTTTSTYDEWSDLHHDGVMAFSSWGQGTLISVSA VL: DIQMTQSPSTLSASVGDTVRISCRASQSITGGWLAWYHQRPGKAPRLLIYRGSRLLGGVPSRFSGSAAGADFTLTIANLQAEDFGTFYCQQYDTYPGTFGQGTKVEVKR ; neutralization IC50 = 7.71
